- Test system: PC-3 prostate
- assay-notes: NCI tumour cell line growth inhibition, 48 h
value-kind: TGI

// known answers, use as guide
Problem: What does the data say about its TGI? Entry: C/C(=N\O)c1ccc(Nc2cc(-n3nnc4ccccc43)nc3ccccc23)cc1
Result: 20.5 µM

Problem: Which TGI value is on record for COc1ccc(OC)c(-c2cc(-c3ccccc3)nn2-c2ccc(S(=O)(=O)NC(C)=O)cc2)c1 ?
Result: 20.6 µM

Problem: // returns reported TGI for input Cc1cc2c(cc1C)NC1=C(N2)OC(c2c[nH]c3ccc(COc4ccccc4)cc23)C1=O (stereo not given)
Result: > 100 µM

Proceed to the following item.
Problem: Bench note: what TGI did O=C(OC12CC3CC(CC(C3)C1)C2)c1ccc(NCc2cc(O)ccc2O)cc1 show?
Result: 3.37 µM
